Target: cdk2/Cyclin A (Homo sapiens)
Assay: Inhibition assay of cdk2/Cyclin A activity (SPA, biotinylated histone H1)
Settings: histone H1 4 μM, ATP 10 μM, Cyclin A/CDK2 1.1 nM, 60 min at room temperature
// reported pIC50 per item
Schema: pIC50 number; meaning minus log10 of the concentration expressed in molar units.

>>> print(df.to_string())
                                   molecule  readout_number
0       CCCNc1nccc(-c2cc3c([nH]2)CCNC3=O)n1            7.46
1  O=C1NCCc2[nH]c(-c3ccnc(NCc4ccco4)n3)cc21            7.10
2    CC(C)CNc1nccc(-c2cc3c([nH]2)CCNC3=O)n1            7.30
3  CC(=O)Nc1ccc(CNc2nccc(-c3cc4c([nH]3)CCNC4=O)n2)cc1 [trifluoroacetate]            7.70

In the following, a different molecule is considered.
Incoming: # query: pIC50 | item O=C1NCCc2[nH]c(-c3ccnc(NCC4CCCCC4)n3)cc21 | system: cdk2/Cyclin A (Homo sapiens)
Outgoing: 6.66
